Biological target: P2X purinoceptor 7 (Homo sapiens, UniProt Q99572)
Sequence (Q99572 whole entry): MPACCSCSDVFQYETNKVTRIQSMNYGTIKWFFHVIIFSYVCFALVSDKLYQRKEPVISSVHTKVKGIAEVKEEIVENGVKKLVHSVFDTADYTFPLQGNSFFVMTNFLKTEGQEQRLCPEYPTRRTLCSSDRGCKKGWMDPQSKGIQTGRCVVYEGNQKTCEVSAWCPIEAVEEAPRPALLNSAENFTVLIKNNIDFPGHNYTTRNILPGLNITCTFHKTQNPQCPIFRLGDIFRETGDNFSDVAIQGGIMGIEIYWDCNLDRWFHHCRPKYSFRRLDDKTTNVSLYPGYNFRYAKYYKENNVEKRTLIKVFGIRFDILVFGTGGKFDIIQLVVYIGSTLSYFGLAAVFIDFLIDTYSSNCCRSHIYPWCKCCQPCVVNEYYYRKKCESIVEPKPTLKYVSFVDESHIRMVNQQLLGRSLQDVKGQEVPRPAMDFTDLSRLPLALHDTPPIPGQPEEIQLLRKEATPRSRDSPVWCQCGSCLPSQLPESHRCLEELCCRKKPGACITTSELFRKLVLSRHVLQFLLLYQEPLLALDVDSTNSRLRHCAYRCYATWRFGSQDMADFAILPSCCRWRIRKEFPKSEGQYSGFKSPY
pIC50: −log10 of the molar value.
# pIC50 >= 7 gives 1, anything below gives 0

Record excerpt, results attached:
{"columns": ["inputSmiles", "classification"],
 "data": [
  ["Cc1c(Br)cccc1N1CCN(Cc2ccc(F)cc2Cl)C(=O)C1=O", 1],
  ["O=C(c1ccc(Cl)cc1Cl)N1CCn2c(nnc2-c2ccc(F)cn2)C1", 1],
  ["CCN1[C@H](C(=O)NCc2ccc(Cl)cc2Cl)CCS1(=O)=O", 1]
]}

--- query ---
[ask] Please indicate if the recorded pIC50 for Cc1ccc(-n2nc(C)c(CC(=O)NCc3ccc(F)cc3Cl)c2C)nn1 meets or exceeds 7.
[reply] 0
